The origin of these recorded values is ChEMBL document CHEMBL5724796.

Known ΔTm of a selection of molecules
Biological target: Bromodomain-containing protein 4 (Homo sapiens)
Details: Compound concentration 20.0 uM
Value expressed in °C; do not type the unit.

Known results for molecules:
* CCn1c(=O)c(C)cn(Cc2nnc(-c3ccc(F)c(OC)c3F)s2)c1=O | -0.83
* CCC(CC)(NC(=O)C(C)C)C(=O)N[C@@H](CCCNC(=N)N)C(=O)NC1(C(=O)NC(c2ccc(F)cc2)c2ccc(F)cc2)CCCC1 | -1.92
* CC(=O)Nc1ccc(-c2cc(-c3ccccc3)nc3cc(C(=O)NCCCn4ccnc4)nn23)cc1 | 1.46
* O=C(NCc1ccc(F)cc1)C1CCN(S(=O)(=O)c2cc(Cl)cc(Cl)c2)CC1 | 1.03
* Cc1ncccc1-c1cnc(NCc2c(F)ccc3c2CCO3)n2cnnc12 | -1.73

Exercise: I would be grateful if you could share the reported ΔTm for CNc1ncc2cc(-c3cc(NC(=O)NCCC(C)(C)C)c(F)cc3C)c(C)nc2n1 .
Key: -2.79

Exercise: I would be grateful if you could share the reported ΔTm for CC1(C)Cn2nc(-c3ccc(F)cn3)c(-c3ccnc4[nH]ncc34)c2CO1 .
Key: -1.54

Exercise: I would be grateful if you could share the reported ΔTm for Fc1ccc(CNc2ncnc3ccc(F)cc23)cc1 .
Key: -2.88

Exercise: I would be grateful if you could share the reported ΔTm for CNCc1ccc(-c2[nH]c3cc(F)cc4c3c2CCNC4=O)cc1 .
Key: -1.77

Exercise: I would be grateful if you could share the reported ΔTm for C[C@H]1CO[C@@H]2Cn3cc(C(=O)NCc4ccc(F)cc4F)c(=O)c(O)c3C(=O)N12 .
Key: -2.15

Exercise: I would be grateful if you could share the reported ΔTm for O=C(Cc1ccccc1)c1cc(O)c(O)c([N+](=O)[O-])c1 .
Key: -1.83
